Experiment: Volume of distribution in C57Bl/6 mouse at 3 mg/kg, iv administered as single dose by LC-MS/MS analysis
Type: ADME, organism-based
Conditions: in vivo
assay_readout: Vd (L/kg)

I: C[C@]12C[C@@]34C=CC(=O)[C@@](C)(CCC(=O)Nc5c(O)ccc(C(=O)O)c5O)[C@@H]3[C@H](C[C@@H]1C4)O2
II: C=C1C[C@@]23C=CC(=O)[C@@](C)(CCC(=O)Nc4c(O)ccc(C(=O)O)c4O)[C@@H]2C[C@@H]1CC3 [PLATENCIN]
Q: Hi there, can you help? I need to know whether I or II has lower measured Vd. Write the label of whichever entry you select.
Ans: II

----------
Experiment: Elimination half life in C57Bl/6 mouse at 10 mg/kg, po administered as single dose via gavage by LC-MS/MS analysis
Format: ADME, organism-based
Conditions: in vivo, read-out: beta t1/2 (converted)
assay_readout: half-life (h)

P: C=C1C[C@@]23C=CC(=O)[C@@](C)(CCC(=O)Nc4c(O)ccc(C(=O)O)c4O)[C@@H]2C[C@@H]1CC3 [PLATENCIN]
Q: C[C@]12C[C@@]34C=CC(=O)[C@@](C)(CCC(=O)Nc5c(O)ccc(C(=O)O)c5O)[C@@H]3[C@H](C[C@@H]1C4)O2
Q: Of the pair P and Q , name the member with the lesser recorded half-life. Could you answer with the label of the item you picked?
Ans: P

----------
Tested on: Plasma
Assay: In vivo stability in C57Bl/6 mouse plasma assessed as compound hydrolysis at 10 mg/kg, iv administered as single dose measured after 60 mins by LC-MS/MS analysis
Type: ADME, organism-based
Details: 1 h

[
  {
    "smiles_data": "C[C@]12C[C@@]34C=CC(=O)[C@@](C)(CCNC(=O)Oc5c(O)ccc(C(=O)O)c5O)[C@@H]3[C@H](C[C@@H]1C4)O2",
    "Stability": "Stable"
  },
  {
    "smiles_data": "C=C1C[C@@]23C=CC(=O)[C@@](C)(CCC(=O)Nc4c(O)ccc(C(=O)O)c4O)[C@@H]2C[C@@H]1CC3",
    "Stability": "Unstable"
  },
  {
    "smiles_data": "C[C@]12C[C@@]34C=CC(=O)[C@@](C)(CCNC(=O)Nc5c(O)ccc(C(=O)O)c5O)[C@@H]3[C@H](C[C@@H]1C4)O2",
    "Stability": "Stable"
  },
  {
    "smiles_data": "C[C@]12C[C@@]34C=CC(=O)[C@@](C)(CCC(=O)Nc5c(O)ccc(C(=O)O)c5O)[C@@H]3[C@H](C[C@@H]1C4)O2",
    "Stability": "Unstable"
  }
]

----------
Test: In vivo stability in C57Bl/6 mouse urine assessed as compound hydrolysis at 10 mg/kg, iv administered as single dose measured after 60 mins by LC-MS/MS analysis
Type: ADME, organism-based
Details: 1 h

[
  {
    "smiles_data": "C[C@]12C[C@@]34C=CC(=O)[C@@](C)(CCNC(=O)Oc5c(O)ccc(C(=O)O)c5O)[C@@H]3[C@H](C[C@@H]1C4)O2",
    "Stability": "Stable"
  },
  {
    "smiles_data": "C[C@]12C[C@@]34C=CC(=O)[C@@](C)(CCC(=O)Nc5c(O)ccc(C(=O)O)c5O)[C@@H]3[C@H](C[C@@H]1C4)O2",
    "Stability": "Unstable"
  },
  {
    "smiles_data": "C=C1C[C@@]23C=CC(=O)[C@@](C)(CCC(=O)Nc4c(O)ccc(C(=O)O)c4O)[C@@H]2C[C@@H]1CC3",
    "Stability": "Unstable"
  },
  {
    "smiles_data": "C[C@]12C[C@@]34C=CC(=O)[C@@](C)(CCNC(=O)Nc5c(O)ccc(C(=O)O)c5O)[C@@H]3[C@H](C[C@@H]1C4)O2",
    "Stability": "Stable"
  }
]

Where do these numbers come from? They come from ChEMBL document CHEMBL3994662.
